# PROTOCOL NOTES: activity coefficient (dimensionless); of the first substance listed, at infinite dilution; xn = mol fraction of the nth substance listed
# RUN PARAMETERS: 338.15 K; 101 kPa; Liquid; Chromatography; x1 = 0
We use 2 as the dividing line for activity coefficient: on or above the line is Criterion met, below is Criterion not met.

compound="O [water] + CCCC[n+]1cccc(C)c1.N#C[N-]C#N" group_label="Criterion not met"
compound="CCCCC(C)=O [2-hexanone] + CCCC[n+]1cccc(C)c1.N#C[N-]C#N" group_label="Criterion met"
compound="C1CCCCCCC1 [cyclooctane] + CCCC[n+]1cccc(C)c1.N#C[N-]C#N" group_label="Criterion met"
compound="C=C(C)c1ccccc1 [(1-methylethenyl)benzene] + CCCC[n+]1cccc(C)c1.N#C[N-]C#N" group_label="Criterion met"
compound="c1ccncc1 [pyridine] + CCCC[n+]1cccc(C)c1.N#C[N-]C#N" group_label="Criterion not met"
compound="CCCOCCC [dipropyl ether] + CCCC[n+]1cccc(C)c1.N#C[N-]C#N" group_label="Criterion met"
compound="C=CCCCCCCCC [1-decene] + CCCC[n+]1cccc(C)c1.N#C[N-]C#N" group_label="Criterion met"
compound="CC1CCCCC1 [methylcyclohexane] + CCCC[n+]1cccc(C)c1.N#C[N-]C#N" group_label="Criterion met"
compound="CCCCCCCCC [nonane] + CCCC[n+]1cccc(C)c1.N#C[N-]C#N" group_label="Criterion met"
compound="CCO [ethanol] + CCCC[n+]1cccc(C)c1.N#C[N-]C#N" group_label="Criterion not met"
compound="CCCCCC [hexane] + CCCC[n+]1cccc(C)c1.N#C[N-]C#N" group_label="Criterion met"
compound="CCCCCCCCCC [decane] + CCCC[n+]1cccc(C)c1.N#C[N-]C#N" group_label="Criterion met"
compound="C=CCCCCCC [oct-1-ene] + CCCC[n+]1cccc(C)c1.N#C[N-]C#N" group_label="Criterion met"
compound="C=CCCCC [hex-1-ene] + CCCC[n+]1cccc(C)c1.N#C[N-]C#N" group_label="Criterion met"
